Every entry's value here was drawn from ChEMBL document CHEMBL1156049.

# MEASURED ON: Acetyl-CoA carboxylase 2 (Homo sapiens, UniProt O00763)
# Sequence (O00763 whole entry): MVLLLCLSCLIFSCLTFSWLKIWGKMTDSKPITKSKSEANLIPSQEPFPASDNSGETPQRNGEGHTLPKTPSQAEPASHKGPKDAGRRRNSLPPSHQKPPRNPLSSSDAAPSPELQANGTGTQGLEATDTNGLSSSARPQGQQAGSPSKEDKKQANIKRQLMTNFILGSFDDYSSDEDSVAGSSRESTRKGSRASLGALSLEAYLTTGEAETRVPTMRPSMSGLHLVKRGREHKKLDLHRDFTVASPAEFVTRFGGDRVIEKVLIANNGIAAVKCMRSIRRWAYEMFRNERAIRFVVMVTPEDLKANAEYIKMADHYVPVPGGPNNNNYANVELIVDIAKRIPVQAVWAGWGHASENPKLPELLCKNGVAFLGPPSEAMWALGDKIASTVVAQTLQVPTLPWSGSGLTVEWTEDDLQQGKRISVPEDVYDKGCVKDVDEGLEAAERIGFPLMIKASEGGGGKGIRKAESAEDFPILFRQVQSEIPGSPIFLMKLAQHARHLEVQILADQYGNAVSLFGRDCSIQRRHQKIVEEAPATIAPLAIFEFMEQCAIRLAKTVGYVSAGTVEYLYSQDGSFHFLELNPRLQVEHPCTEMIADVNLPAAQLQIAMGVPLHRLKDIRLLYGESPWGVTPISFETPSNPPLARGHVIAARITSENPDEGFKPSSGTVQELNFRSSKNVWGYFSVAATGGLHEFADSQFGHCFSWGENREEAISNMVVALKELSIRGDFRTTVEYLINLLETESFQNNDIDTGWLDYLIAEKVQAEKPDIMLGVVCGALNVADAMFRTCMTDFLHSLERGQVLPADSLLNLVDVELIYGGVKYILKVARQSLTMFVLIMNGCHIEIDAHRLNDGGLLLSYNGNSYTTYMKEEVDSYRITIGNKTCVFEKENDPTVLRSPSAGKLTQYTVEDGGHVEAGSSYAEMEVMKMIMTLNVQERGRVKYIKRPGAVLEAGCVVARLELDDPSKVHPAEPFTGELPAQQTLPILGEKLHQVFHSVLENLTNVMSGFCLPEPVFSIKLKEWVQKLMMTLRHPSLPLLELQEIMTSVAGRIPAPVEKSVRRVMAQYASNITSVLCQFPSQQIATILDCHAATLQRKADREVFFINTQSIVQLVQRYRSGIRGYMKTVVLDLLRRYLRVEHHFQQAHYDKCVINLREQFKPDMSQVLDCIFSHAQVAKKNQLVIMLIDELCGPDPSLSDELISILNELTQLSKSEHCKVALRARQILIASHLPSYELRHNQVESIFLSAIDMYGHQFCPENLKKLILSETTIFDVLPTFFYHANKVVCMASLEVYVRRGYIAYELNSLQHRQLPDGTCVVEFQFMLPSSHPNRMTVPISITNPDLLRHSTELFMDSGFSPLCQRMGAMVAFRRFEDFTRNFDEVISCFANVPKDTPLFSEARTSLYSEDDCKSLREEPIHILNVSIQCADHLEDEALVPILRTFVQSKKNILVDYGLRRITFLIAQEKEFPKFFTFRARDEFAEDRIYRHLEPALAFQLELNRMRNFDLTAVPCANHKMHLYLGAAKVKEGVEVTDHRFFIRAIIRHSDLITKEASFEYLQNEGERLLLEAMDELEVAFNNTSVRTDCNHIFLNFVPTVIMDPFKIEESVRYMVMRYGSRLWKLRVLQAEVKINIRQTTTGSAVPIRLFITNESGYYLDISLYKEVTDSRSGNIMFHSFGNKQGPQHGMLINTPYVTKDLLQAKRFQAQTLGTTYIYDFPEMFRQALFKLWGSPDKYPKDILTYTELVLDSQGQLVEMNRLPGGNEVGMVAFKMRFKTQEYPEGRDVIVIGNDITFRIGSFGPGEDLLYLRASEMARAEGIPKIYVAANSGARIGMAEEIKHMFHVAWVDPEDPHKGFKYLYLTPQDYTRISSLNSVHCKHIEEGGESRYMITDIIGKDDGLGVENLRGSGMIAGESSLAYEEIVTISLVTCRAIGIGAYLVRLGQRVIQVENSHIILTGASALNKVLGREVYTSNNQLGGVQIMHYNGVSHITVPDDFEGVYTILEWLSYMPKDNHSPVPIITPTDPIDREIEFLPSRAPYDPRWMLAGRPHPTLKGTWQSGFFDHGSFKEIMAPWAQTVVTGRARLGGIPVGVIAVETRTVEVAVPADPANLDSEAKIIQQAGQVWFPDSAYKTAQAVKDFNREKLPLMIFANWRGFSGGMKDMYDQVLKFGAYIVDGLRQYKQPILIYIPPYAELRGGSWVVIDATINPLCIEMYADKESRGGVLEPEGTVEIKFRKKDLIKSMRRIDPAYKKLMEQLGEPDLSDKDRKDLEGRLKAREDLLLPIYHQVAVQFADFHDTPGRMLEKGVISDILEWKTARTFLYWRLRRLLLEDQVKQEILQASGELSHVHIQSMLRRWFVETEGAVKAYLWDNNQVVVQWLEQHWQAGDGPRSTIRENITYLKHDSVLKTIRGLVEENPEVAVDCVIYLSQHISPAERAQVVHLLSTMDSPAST
# PROTOCOL SUMMARY: Inhibition of human recombinant ACC 2 expressed in baculovirus expression system by FAS-coupled assay
MEASURED PROPERTY: IC50 (µM)

For the record CCCOc1ccc(Oc2ccc(-c3ccc(C(C)NC(=O)C4CC4)cc3)cn2)cc1 (stereo not given) , what value of IC50 is listed for Acetyl-CoA carboxylase 2 (Homo sapiens, UniProt O00763)?
0.141

1 = CC(=O)NC(C)c1ccc(-c2ccc(Oc3ccc(OC(C)C)cc3)cc2)cc1 (stereo not given)
2 = CC(=O)NC(C)c1ccc(-c2ccc(Oc3ccc(-c4c(O)ccc5c4CCCC5)cc3)cc2)cc1 (stereo not given)
3 = CCOc1cccc(Oc2ccc(-c3ccc(C(C)NC(C)=O)cc3)cc2)c1 (stereo not given)
Place the items in sequence of falling IC50. Quick reminder: the answer is the labels in the order asked.
2, 3, 1

###

# MEASURED ON: Acetyl-CoA carboxylase 2 (Homo sapiens)
# PROTOCOL SUMMARY: Inhibition of human recombinant ACC 2 expressed in baculovirus expression system by FAS-coupled assay
MEASURED PROPERTY: IC50 (nM)

Given the entry CCCOc1ccc(Oc2ccc(-c3ccc(C(C)NC(=O)CC)cc3)cc2)cc1 (stereo not given) , what IC50 was observed with Acetyl-CoA carboxylase 2 (Homo sapiens)?
202

Tell me reported IC50 for CC(=O)NC(C)c1ccc(-c2ccc(Oc3ccc(OC(C)C)cc3)cc2C)c(C)c1 (stereo not given) , tested with Acetyl-CoA carboxylase 2 (Homo sapiens).
88

What measured IC50 is associated with COc1cccc(Oc2ccc(-c3ccc(C(C)NC(C)=O)cc3)cc2)c1 (stereo not given) on Acetyl-CoA carboxylase 2 (Homo sapiens)?
373

Param readout = IC50; param system = Acetyl-CoA carboxylase 2 (Homo sapiens); param query = CCCOc1ccc(Oc2ccc(-c3ccc(C(C)NC(=O)C4CC4)cc3)cc2)cc1 (stereo not given) ; response: value
550

State its IC50 on Acetyl-CoA carboxylase 2 (Homo sapiens): `CCCOc1ccc(Oc2ccc(-c3ccc([C@H](C)NC(C)=O)cc3)cn2)cc1`
8

I = CCCOc1ccc(Oc2ccc(-c3ccc(C(C)NC(=O)OCC)cc3)cn2)cc1 (stereo not given)
II = CCCCC(=O)NC(C)c1ccc(-c2ccc(Oc3ccc(OCCC)cc3)nc2)cc1 (stereo not given)
III = CCCOc1ccc(Oc2ccc(-c3ccc(C(C)NC(=O)COC)cc3)cn2)cc1 (stereo not given)
IV = CCCOc1ccc(Oc2ccc(-c3ccc(C(C)NC(C)=O)cc3)cn2)cc1 (stereo not given)
Rank the items in ascending order with respect to IC50. Response field: labels, in requested order.
IV, I, III, II

###

# MEASURED ON: UniProt Q13085
# PROTOCOL SUMMARY: Inhibition of human recombinant ACC 1 expressed in baculovirus expression system by FAS-coupled assay
pIC50: −log10 of the molar value.
MEASURED PROPERTY: pIC50

Request - read-out pIC50 | tested on UniProt Q13085 | compound CCCOc1ccc(Oc2ccc(-c3ccc(C(C)NC(=O)C(C)C)cc3)cc2)cc1 (stereo not given)
6.73

Request: pIC50, test system UniProt Q13085, entry CCCOc1ccc(Oc2ccc(-c3ccc(C(C)NC(=O)CC)cc3)cn2)cc1 (stereo not given)
7.16

1 = CC(=O)NC(C)c1ccc(-c2ccc(Oc3ccc(OC(C)C)cc3)cc2C)cc1 (stereo not given)
2 = CCCOc1ccc(Oc2ccc(-c3ccc(C(C)NC(=O)CCC)cc3)cn2)cc1 (stereo not given)
# min-compare on pIC50 between 1 and 2 Respond using the label that marks the chosen record.
2

###

# MEASURED ON: Acetyl-CoA carboxylase 2 (Homo sapiens)
# PROTOCOL SUMMARY: Inhibition of human recombinant ACC 2 expressed in baculovirus expression system by FAS-coupled assay
MEASURED PROPERTY: IC50 (nM)

Illustrative cases are given below, each with its answer.
Item CC(=O)NC(C)c1ccc(-c2ccc(Oc3cccc(Oc4ccccc4)c3)nc2)cc1 (stereo unspecified) has what recorded IC50?
32

IC50 lookup needed for CCCOc1ccc(Oc2ccc(-c3ccc(C(C)NC(=O)C(C)C)cc3)cn2)cc1 (stereo unspecified) , thanks.
156

May I ask what IC50 has been recorded for CCCOc1cccc(Oc2ccc(-c3ccc(C(C)NC(=O)c4cn[nH]c4)cc3)cc2)c1 (stereo unspecified) ?
609

For CC(=O)NC(C)c1ccc(-c2ccc(Oc3ccc(OC(C)C)cc3)cc2)c(C)c1 (stereo unspecified) , what is its reported IC50?
303

P = CC(=O)NC(C)c1ccc(-c2ccc(Oc3ccc(OC(C)C)cc3)cc2C)cc1 (stereo unspecified)
Q = CCCOc1ccc(Oc2ccc(-c3ccc(C(C)NC(=O)C(C)C)cc3)cc2)cc1 (stereo unspecified)
I'm curious, which of these has a smaller IC50 number: P or Q ? Reply with the label of the item you choose.
P

###

# MEASURED ON: Acetyl-CoA carboxylase 2 (Homo sapiens, UniProt O00763)
# PROTOCOL SUMMARY: Inhibition of human recombinant ACC 2 expressed in baculovirus expression system by FAS-coupled assay
MEASURED PROPERTY: IC50 (nM)

# IC50 lookup, item CCCOc1ccc(Oc2ccc(-c3ccc(C(C)NC(=O)CCC)cc3)cn2)cc1 (stereo not given)
494

A = CCCOc1ccc(Oc2ccc(-c3ccc(C(C)NC(=O)COC)cc3)cc2)cc1 (stereo not given)
B = CCCOc1ccc(Oc2ccc(-c3ccc(C(C)NC(C)=O)cc3)cc2)cc1 (stereo not given)
Given the listed items, does A or B have the lesser reported IC50? Select an item and report its label.
B

###

# MEASURED ON: Acetyl-CoA carboxylase 1 (Homo sapiens)
# PROTOCOL SUMMARY: Inhibition of human recombinant ACC 1 expressed in baculovirus expression system by FAS-coupled assay
MEASURED PROPERTY: IC50 (nM)

Reported IC50, compound CC(=O)NC(C)c1ccc(-c2ccc(Oc3ccc(OC(C)C)cc3)nc2)cc1 (stereo not given) : ____
415

So what does the record say about IC50 for CCCOc1ccc(Oc2ccc(-c3ccc(C(C)NC(=O)C4CC4)cc3)cc2)cc1 (stereo not given) ?
296

A = CCCOc1ccc(Oc2ccc(-c3ccc(C(C)NC(C)=O)cc3)cc2)cc1 (stereo not given)
B = CCOc1cccc(Oc2ccc(-c3ccc(C(C)NC(C)=O)cc3)cc2)c1 (stereo not given)
Please indicate which item has the smaller measured IC50: A versus B Mark your selection by writing its label.
A

a = CCCOc1ccc(Oc2ccc(-c3ccc(C(C)NC(C)=O)cc3)cn2)cc1 (stereo not given)
b = CC(=O)NC(C)c1ccc(-c2ccc(Oc3cccc(Oc4ccccc4)c3)cc2)cc1 (stereo not given)
// select label with min value of measured IC50 from [ a , b ] Please identify the chosen entry by its label.
b

A = CC(=O)NC(C)c1ccc(-c2ccc(Oc3cccc(Oc4ccccc4)c3)nc2)cc1 (stereo not given)
B = CCCOc1ccc(Oc2ccc(-c3ccc(C(C)NC(=O)OCC)cc3)cn2)cc1 (stereo not given)
Which is greater in IC50, the first item A or the second item B ? Returns: label corresponding to the selected item.
B
(B: 8150 nM, A: 49 nM)

###

# MEASURED ON: Acetyl-CoA carboxylase 1 (Homo sapiens)
# PROTOCOL SUMMARY: Inhibition of human recombinant ACC 1 expressed in baculovirus expression system by FAS-coupled assay
MEASURED PROPERTY: IC50 (nM)

Some entries whose results are on file:
# returns recorded IC50 (system: Acetyl-CoA carboxylase 1 (Homo sapiens)) for CCCOc1cccc(Oc2ccc(-c3ccc(C(C)NC(=O)c4cn[nH]c4)cc3)cc2)c1 (stereo unspecified)
36

Lab note: need IC50 with Acetyl-CoA carboxylase 1 (Homo sapiens) for entry CC(=O)NC(C)c1ccc(-c2ccc(Oc3ccc(C(=O)c4ccccc4)cc3)cc2)cc1 (stereo unspecified) , please look it up.
35

P = CCCOc1cccc(Oc2ccc(-c3ccc(C(C)NC(C)=O)cc3)cc2)c1 (stereo unspecified)
Q = CCCOc1ccc(Oc2ccc(-c3ccc(C(C)NC(=O)CCC)cc3)cc2)cc1 (stereo unspecified)
Of the two listed items, which has the higher IC50? First: P Second: Q API: response body contains the label of the selected item.
Q

###

# MEASURED ON: Acetyl-CoA carboxylase 1 (Homo sapiens)
# PROTOCOL SUMMARY: Inhibition of human recombinant ACC 1 expressed in baculovirus expression system by FAS-coupled assay
pIC50: −log10 of the molar value.
MEASURED PROPERTY: pIC50

1 = CC(=O)NC(C)c1ccc(-c2ccc(Oc3ccc(OC(C)C)cc3)cc2)c(C)c1 (stereo not given)
2 = CC(=O)NC(C)c1ccc(-c2ccc(Oc3ccc(Oc4ccccc4)cc3)cc2)cc1 (stereo not given)
Short answer wanted: higher pIC50, 1 or 2 ? When you have decided, please share the label of that item.
2

###

# Species: Homo sapiens
# PROTOCOL SUMMARY: Selectivity ratio of IC50 for human ACC 1 to IC50 for human ACC 2
MEASURED PROPERTY: Selectivity ratio

P = CCOc1cccc(Oc2ccc(-c3ccc(C(C)NC(C)=O)cc3)cc2)c1 (stereo unspecified)
Q = CCOc1ccc(Oc2ccc(-c3ccc(C(C)NC(C)=O)cc3)cc2)cc1 (stereo unspecified)
R = CCCOc1ccc(Oc2ccc(-c3ccc(C(C)NC(=O)CC)cc3)cn2)cc1 (stereo unspecified)
S = CCCOc1ccc(Oc2ccc(-c3ccc(C(C)NC(C)=O)cc3)cn2)cc1 (stereo unspecified)
Output the listed items in decreasing order of Selectivity ratio. Give me the labels in the order the question wants.
P, Q, S, R
(P: 84, Q: 14, S: 6, R: 2)
